Test system: NCI-H522
Assay: NCI tumour cell line growth inhibition, 48 h
Active and inactive are the calls of the source. Rule as the data show it: active = GI50 up to about 1.1 µM and inactive = higher.
Reported GI50 values follow for various molecules

{"columns": ["molecule", "GI50"],
 "data": [
  ["O=c1oc2cccnc2n1CCCCN1CCN(c2ccccc2)CC1", "> 100 µM (inactive)"],
  ["C[n+]1c(-c2ccc(/C=N/NC(=O)C(=O)N/N=C/c3ccc(-c4cn5ccccc5[n+]4C)cc3)cc2)cn2ccccc21", "> 100 µM (inactive)"],
  ["Cc1ccc(S(=O)(=O)NC(=O)NC(Cc2ccc(O)c(O)c2)C(=O)O)cc1 (stereo not given)", "> 100 µM (inactive)"]
]}

Query :: Give its GI50 value. Item: COc1ccc(/C(C)=N/OC(=O)c2c(-c3ccccc3Cl)noc2C)cc1CN1CCOCC1
Result :: 17.8 µM (inactive)

Query :: What about COc1ccc(/C=N/NC(=O)C2=C(N)N(c3ccccc3)C(=C(C#N)C#N)S2)cc1 ?
Result :: > 100 µM (inactive)
